Each entry below lists one item and its recorded pKd value.
ASSAYED SYSTEM: T1, hPRLR.mmh (soluble monomeric human PRLR) (human)
T1 construct: called soluble monomeric PRLR protein
T1 chain: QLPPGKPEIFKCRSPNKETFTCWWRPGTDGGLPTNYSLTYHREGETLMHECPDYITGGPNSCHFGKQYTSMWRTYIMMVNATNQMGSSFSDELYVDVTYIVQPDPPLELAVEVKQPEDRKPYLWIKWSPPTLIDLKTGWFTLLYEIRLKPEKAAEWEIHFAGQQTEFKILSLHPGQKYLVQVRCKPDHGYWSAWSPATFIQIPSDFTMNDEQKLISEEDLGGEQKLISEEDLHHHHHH
PROTOCOL TEXT: SPR Biacore, 25 C, mAb capture
// pKd: -log10(molar conc.)

Worked examples follow.
>>> experimental_result("H1H6792P (antibody, human IgG1, V domains shown, Human IgG1 Fc (H1H)) VH: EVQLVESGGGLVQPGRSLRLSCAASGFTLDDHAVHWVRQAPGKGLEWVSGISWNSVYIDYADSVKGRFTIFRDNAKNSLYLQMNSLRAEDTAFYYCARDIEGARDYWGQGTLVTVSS VL: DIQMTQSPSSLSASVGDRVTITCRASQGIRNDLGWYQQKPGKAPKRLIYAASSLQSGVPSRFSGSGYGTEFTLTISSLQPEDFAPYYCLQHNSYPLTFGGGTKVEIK")
8.61
>>> experimental_result("H1H6959N2 (antibody, human IgG1, V domains shown, Tested with human IgG1 Fc (H1H); also called H2M6959N2) VH: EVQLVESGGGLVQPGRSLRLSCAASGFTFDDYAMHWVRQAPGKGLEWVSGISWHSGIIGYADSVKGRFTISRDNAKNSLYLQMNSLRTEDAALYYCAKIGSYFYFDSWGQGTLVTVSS VL: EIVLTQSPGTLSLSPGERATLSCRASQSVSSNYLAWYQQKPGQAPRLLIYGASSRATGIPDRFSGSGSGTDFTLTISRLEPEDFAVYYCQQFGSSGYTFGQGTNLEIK")
6.69

Attention now shifts to the item below.
Look up pKd for this binder: H1H6801P (antibody, human IgG1, V domains shown, Human IgG1 Fc (H1H)) VH: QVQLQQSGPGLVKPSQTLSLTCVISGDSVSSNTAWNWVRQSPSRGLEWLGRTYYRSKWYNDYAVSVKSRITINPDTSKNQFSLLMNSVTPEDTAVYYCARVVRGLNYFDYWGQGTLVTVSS VL: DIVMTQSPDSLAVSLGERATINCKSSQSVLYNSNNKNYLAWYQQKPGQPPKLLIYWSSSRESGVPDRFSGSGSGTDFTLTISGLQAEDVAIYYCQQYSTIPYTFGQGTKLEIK
9.05

These data points were gathered from patent US20180185504A1.
